SYSTEM NAME: human blood platelet PDE5 (Homo sapiens)
Construct: obtained by suitably treating various tissues and separating the enzyme with FPLC; from tissue; host or cells: human blood platelets
ASSAY OVERVIEW: PDE5 enzyme inhibition activity test (scintillation proximity)
Assay type: biochemical
MEASUREMENT PARAMETERS: PDE5 table
Experimental: More specifically, PDE5 and PDE3 were obtained from human blood platelet, and PDE6 was separated from bovine retina. Upon enzyme was separated out, the enzyme inhibition activity test would be carried out immediately. […] After shaken for 20 min, the reaction mixture was put in dark and settled for 30 min, and then readed on a BECKMAN LS6500 MULTI-PURPOSE SCINTILLATION COUNTER.
MEASUREMENT LABEL: IC50 (nM)

Examples with answers:
[[record]]
compound = "CCCOc1ccc(S(=O)(=O)NCCS(=O)(=O)O)cc1-c1nc(CC)c(CC)c(=O)[nH]1"
measurement_label = "IC50"
reading_unit = "nM"
result = 0.19

[[record]]
compound = "CCCOc1ccc(NC(=O)C(F)(F)F)cc1-c1nc(CC)c(CC)c(=O)[nH]1"
measurement_label = "IC50"
reading_unit = "nM"
result = 2.77


[A] CCCOc1ccc(NC(=O)c2ccccc2)cc1-c1nc(CC)c(CC)c(=O)[nH]1
[B] CCCOc1ccc(C(=O)NC(CCCNC(N)=O)C(=O)O)cc1-c1nc(CC)c(CC)c(=O)[nH]1 (stereo not shown)
**Q:** Hi, I'm comparing A with B and wondering which one has the bigger number for IC50. Any idea? Response format: the label of the selected entry.
**A:** B

----------
SYSTEM NAME: PDE6 in bovine retina (Bos taurus, UniProt P11541+P23439)
Construct: obtained by suitably treating various tissues and separating the enzyme with FPLC; from tissue; host or cells: bovine retina
Sequence (P11541 2-856 limits assumed): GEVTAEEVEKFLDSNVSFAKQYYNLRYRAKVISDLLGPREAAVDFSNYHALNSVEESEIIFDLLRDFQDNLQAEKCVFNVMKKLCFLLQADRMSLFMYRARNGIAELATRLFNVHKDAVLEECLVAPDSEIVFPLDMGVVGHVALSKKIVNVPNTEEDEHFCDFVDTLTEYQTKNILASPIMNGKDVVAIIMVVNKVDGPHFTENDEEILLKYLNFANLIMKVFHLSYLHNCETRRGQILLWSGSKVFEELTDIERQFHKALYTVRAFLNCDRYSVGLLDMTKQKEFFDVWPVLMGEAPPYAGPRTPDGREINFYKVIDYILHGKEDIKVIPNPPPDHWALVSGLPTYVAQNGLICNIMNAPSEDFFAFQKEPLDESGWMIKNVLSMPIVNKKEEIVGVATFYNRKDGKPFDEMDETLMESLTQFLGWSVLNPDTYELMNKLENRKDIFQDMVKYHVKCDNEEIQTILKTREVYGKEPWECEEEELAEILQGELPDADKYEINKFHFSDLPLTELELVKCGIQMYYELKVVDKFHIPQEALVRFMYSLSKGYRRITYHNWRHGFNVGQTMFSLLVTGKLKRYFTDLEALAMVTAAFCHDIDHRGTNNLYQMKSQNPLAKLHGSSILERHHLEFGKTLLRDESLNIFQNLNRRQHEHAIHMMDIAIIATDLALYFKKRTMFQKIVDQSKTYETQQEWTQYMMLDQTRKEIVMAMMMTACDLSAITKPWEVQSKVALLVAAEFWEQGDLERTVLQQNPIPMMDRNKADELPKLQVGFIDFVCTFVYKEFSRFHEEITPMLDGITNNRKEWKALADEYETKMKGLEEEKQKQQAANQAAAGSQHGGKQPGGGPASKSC
Sequence (P23439 2-850 limits assumed): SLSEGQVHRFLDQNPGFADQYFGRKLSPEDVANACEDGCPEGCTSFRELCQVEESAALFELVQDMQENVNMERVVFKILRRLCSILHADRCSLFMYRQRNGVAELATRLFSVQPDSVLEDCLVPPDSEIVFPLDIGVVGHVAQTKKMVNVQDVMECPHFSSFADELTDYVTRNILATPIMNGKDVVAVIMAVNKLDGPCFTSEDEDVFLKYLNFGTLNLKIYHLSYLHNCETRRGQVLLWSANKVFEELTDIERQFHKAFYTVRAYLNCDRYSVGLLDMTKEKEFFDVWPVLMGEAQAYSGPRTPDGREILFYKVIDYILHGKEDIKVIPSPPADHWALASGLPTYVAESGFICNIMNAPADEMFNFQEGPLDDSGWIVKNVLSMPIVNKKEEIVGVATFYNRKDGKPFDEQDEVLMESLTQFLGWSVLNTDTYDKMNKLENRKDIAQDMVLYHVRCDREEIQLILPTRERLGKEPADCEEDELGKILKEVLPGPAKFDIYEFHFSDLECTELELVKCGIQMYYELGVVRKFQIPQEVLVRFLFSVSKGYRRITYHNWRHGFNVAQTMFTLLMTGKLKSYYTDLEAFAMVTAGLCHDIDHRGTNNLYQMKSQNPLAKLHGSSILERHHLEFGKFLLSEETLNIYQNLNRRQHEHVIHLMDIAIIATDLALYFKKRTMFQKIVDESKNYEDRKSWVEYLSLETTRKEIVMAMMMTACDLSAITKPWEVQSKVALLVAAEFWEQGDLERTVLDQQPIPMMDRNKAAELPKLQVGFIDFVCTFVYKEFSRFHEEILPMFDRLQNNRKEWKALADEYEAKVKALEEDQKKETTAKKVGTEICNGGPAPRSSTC
ASSAY OVERVIEW: PDE6 enzyme inhibition activity test (scintillation proximity)
Format: biochemical
MEASUREMENT PARAMETERS: PDE6 separated from bovine retina; read-out: PDE6 IC50
MEASUREMENT LABEL: IC50 (nM)

Worked set:
[[record]]
molecule = "CCCOc1ccc(NC(=O)C2CC(O)CN2C(=O)OC(C)(C)C)cc1-c1nc(CC)c(CC)c(=O)[nH]1 (centres unmarked)"
measurement_label = "IC50"
reading_unit = "nM"
result = 8.19

[[record]]
molecule = "CCCOc1ccc(C(=O)NCC(=O)OCC)cc1-c1nc(CC)c(CC)c(=O)[nH]1"
measurement_label = "IC50"
reading_unit = "nM"
result = 11.7

[[record]]
molecule = "CCCOc1ccc(NC(=O)CCCNC(C)=O)cc1-c1nc(CC)c(CC)c(=O)[nH]1"
measurement_label = "IC50"
reading_unit = "nM"
result = 6.42

[[record]]
molecule = "CCCOc1ccc(S(=O)(=O)NCCCS(=O)(=O)O)cc1-c1nc(CC)c(CC)c(=O)[nH]1"
measurement_label = "IC50"
reading_unit = "nM"
result = 3.76

[[record]]
molecule = "CCCOc1ccc(C(=O)NC(Cc2ccc(O)cc2)C(=O)OC)cc1-c1nc(CC)c(CC)c(=O)[nH]1 (centres unmarked)"
measurement_label = "IC50"
reading_unit = "nM"
result = 4.25

[[record]]
molecule = "CCCOc1ccc(NS(C)(=O)=O)cc1-c1nc(CC)c(CC)c(=O)[nH]1"
measurement_label = "IC50"
reading_unit = "nM"
result = 34.8

[[record]]
molecule = "CCCOc1ccc(NC(=O)CC(=O)OCC)cc1-c1nc(CC)c(CC)c(=O)[nH]1"
measurement_label = "IC50"
reading_unit = "nM"
result = 24.6

[[record]]
molecule = "CCCOc1ccc(NC(=O)CN2CCN(C)CC2)cc1-c1nc(CC)c(CC)c(=O)[nH]1"
measurement_label = "IC50"
reading_unit = "nM"
result = 22.2

[[record]]
molecule = "CCCOc1ccc(C(=O)CN2CCOCC2)cc1-c1nc(CC)c(CC)c(=O)[nH]1"
measurement_label = "IC50"
reading_unit = "nM"
result = 25.2

[[record]]
molecule = "CCCOc1ccc(C(=O)NC(C)C(=O)N2CCN(C)CC2)cc1-c1nc(CC)c(CC)c(=O)[nH]1 (centres unmarked)"
measurement_label = "IC50"
reading_unit = "nM"
result = 37.9


[1] CCCOc1ccc(C(=O)NC(Cc2ccccc2)C(=O)O)cc1-c1nc(CC)c(CC)c(=O)[nH]1 (centres unmarked)
[2] CCCOc1ccc(NC(=O)C(Cc2ccccc2)NC(C)=O)cc1-c1nc(CC)c(CC)c(=O)[nH]1 (centres unmarked)
[3] CCCOc1ccc(C(=O)NC2CCC(C(=O)OC)NC2)cc1-c1nc(CC)c(CC)c(=O)[nH]1 (centres unmarked)
[4] CCCOc1ccc(NC(C)=O)cc1-c1nc(C(C)C)c(Br)c(=O)[nH]1
**Q:** Sort low-to-high on IC50, please. Reply with the item labels sorted in the order that was asked for.
**A:** 1, 3, 2, 4
(1: 5.42 nM, 3: 13.7 nM, 2: 22.2 nM, 4: 52.6 nM)

Where do these numbers come from? They come from patent US8871777B2.
